- targetOrTestSystem: Thromboxane A2 receptor (Homo sapiens, UniProt P21731); also: assay procedure not described here
- Sequence (P21731 whole entry): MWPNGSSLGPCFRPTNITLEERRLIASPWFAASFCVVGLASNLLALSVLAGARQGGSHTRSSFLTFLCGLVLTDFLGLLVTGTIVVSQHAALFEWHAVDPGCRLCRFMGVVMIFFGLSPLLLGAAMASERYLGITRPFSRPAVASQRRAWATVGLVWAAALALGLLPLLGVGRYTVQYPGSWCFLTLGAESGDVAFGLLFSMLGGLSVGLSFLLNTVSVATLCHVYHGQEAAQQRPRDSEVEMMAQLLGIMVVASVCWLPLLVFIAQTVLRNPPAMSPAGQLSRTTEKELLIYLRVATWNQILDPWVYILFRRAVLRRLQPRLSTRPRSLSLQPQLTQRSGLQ
- Format: functional, cell-based
property: AC50

# count of solved cases: 4
compound: CC(=O)OC[C@H]1O[C@@H](n2ncc(=O)[nH]c2=O)[C@H](OC(C)=O)[C@@H]1OC(C)=O
testResult: > 30 µM
//
compound: Cc1cc2c(cc1S(N)(=O)=O)S(=O)(=O)CCC2
testResult: > 30 µM
//
compound: COc1ccc(OC)c(C(O)C(C)N)c1 (centres undefined)
testResult: > 30 µM
//
compound: Cc1cc(=O)oc2cc(O)ccc12
testResult: > 30 µM

In: Can you look up AC50 on Thromboxane A2 receptor (Homo sapiens, UniProt P21731) for CCC1=C[C@@H]2CN(C1)Cc1c([nH]c3ccccc13)[C@@](C(=O)OC)(c1cc3c(cc1OC)N(C)[C@H]1[C@@](O)(C(=O)OC)[C@H](OC(C)=O)[C@]4(CC)C=CCN5CC[C@]31[C@@H]54)C2 ?
Out: > 30 µM

In: Can you look up AC50 on Thromboxane A2 receptor (Homo sapiens, UniProt P21731) for N[C@@H](Cc1ccccc1)C(=O)O ?
Out: > 30 µM

In: Can you look up AC50 on Thromboxane A2 receptor (Homo sapiens, UniProt P21731) for CN1CCCN(C(c2ccccc2)c2ccc(Cl)cc2)CC1 (centres undefined) ?
Out: > 3 µM

In: Can you look up AC50 on Thromboxane A2 receptor (Homo sapiens, UniProt P21731) for CC(COc1ccccc1)NC(C)C(O)c1ccc(O)cc1 (centres undefined) ?
Out: > 30 µM

In: Can you look up AC50 on Thromboxane A2 receptor (Homo sapiens, UniProt P21731) for C[C@H]1O[C@@H](O[C@H]2CC[C@@]3(C)[C@H](CC[C@@H]4[C@@H]3C[C@@H](O)[C@]3(C)[C@@H](C5=CC(=O)OC5)CC[C@]43O)C2)C[C@H](O)[C@@H]1O[C@H]1C[C@H](O)[C@H](O[C@H]2C[C@H](O)[C@H](O[C@@H]3O[C@H](CO)[C@@H](O)[C@H](O)[C@H]3O)[C@@H](C)O2)[C@@H](C)O1 [DESLANOSIDE] ?
Out: > 30 µM

In: Can you look up AC50 on Thromboxane A2 receptor (Homo sapiens, UniProt P21731) for O=S1(=O)CCN(CN2CCS(=O)(=O)NC2)CN1 ?
Out: > 30 µM

###

Each entry below carries its recorded AC50.
- targetOrTestSystem: Alpha-2C adrenergic receptor (Homo sapiens, UniProt P18825); also: assay procedure not described here
- Sequence (P18825 whole entry): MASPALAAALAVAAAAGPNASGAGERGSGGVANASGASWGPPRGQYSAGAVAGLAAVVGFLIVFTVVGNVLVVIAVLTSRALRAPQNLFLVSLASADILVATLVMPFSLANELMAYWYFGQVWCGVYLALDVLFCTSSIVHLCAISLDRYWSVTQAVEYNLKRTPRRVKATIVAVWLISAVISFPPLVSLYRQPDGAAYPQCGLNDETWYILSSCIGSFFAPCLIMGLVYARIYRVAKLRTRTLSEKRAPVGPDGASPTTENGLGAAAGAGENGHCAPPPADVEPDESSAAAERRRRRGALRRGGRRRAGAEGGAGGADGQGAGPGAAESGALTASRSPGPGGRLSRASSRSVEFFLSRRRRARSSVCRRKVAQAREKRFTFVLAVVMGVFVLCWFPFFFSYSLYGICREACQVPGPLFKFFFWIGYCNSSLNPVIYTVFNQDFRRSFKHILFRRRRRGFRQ
- Format: functional

molecule: Clc1ccc(Cn2c(CN3CCCC3)nc3ccccc32)cc1
property: AC50
testResult: > 30 µM

molecule: CC(O)(CS(=O)(=O)c1ccc(F)cc1)C(=O)Nc1ccc(C#N)c(C(F)(F)F)c1 (centres undefined) [BICALUTAMIDE]
property: AC50
testResult: 13 µM

molecule: CN[C@]1(c2ccccc2Cl)CCCCC1=O
property: AC50
testResult: > 30 µM

molecule: CCC1(c2ccc(N)cc2)CCC(=O)NC1=O (centres undefined) [AMINOGLUTETHIMIDE]
property: AC50
testResult: > 30 µM

Now look at this entry.
In: Can you look up AC50 on Alpha-2C adrenergic receptor (Homo sapiens, UniProt P18825) for CCCc1cc(=O)[nH]c(=S)[nH]1 ?
Out: > 10 µM

Numbers sourced from ChEMBL document CHEMBL5291721.
